target: UniProt:P18130; test: biochemical; assay type: binding, bovine; conditions: [3H]-prazosin radioligand; cloned receptor in LTK cell membranes; read-out: Radioligand Binding (Ki, nM) 1a (Bovine)
Sequence (P18130 whole entry): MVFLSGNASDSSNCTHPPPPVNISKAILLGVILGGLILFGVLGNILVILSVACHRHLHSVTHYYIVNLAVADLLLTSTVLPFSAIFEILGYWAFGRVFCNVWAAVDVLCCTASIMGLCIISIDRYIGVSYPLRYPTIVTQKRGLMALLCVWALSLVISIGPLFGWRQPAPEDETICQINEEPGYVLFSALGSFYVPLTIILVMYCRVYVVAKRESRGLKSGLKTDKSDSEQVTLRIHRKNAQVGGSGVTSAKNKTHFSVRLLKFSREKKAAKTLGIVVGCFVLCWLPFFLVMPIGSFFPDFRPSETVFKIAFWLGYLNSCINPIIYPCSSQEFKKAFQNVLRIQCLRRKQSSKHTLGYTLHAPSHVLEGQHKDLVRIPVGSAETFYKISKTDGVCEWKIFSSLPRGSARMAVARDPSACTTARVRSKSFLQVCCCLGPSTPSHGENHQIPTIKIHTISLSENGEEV
Counter-ions that a name gives are not always drawn.
Parameter measured: Ki (nM)

>>> numeric_readout("COc1ccc2sc3c(=O)n(CCCCN4C[C@H]5COc6cccc(OC)c6[C@@H]5C4)c(=O)[nH]c3c2n1 [Example 26, hydrochloride]")
0.022
>>> numeric_readout("COc1cccc2c1[C@@H]1CN(CCCCn3c(=O)[nH]c4c(sc5c(OC)ccnc54)c3=O)C[C@H]1CO2 [Example 17, dihydrochloride]")
0.068
>>> numeric_readout("COc1cccc2c1[C@@H]1CN(CCCCn3c(=O)[nH]c4c(sc5c(Cl)nccc54)c3=O)C[C@@H]1CO2")
0.037
>>> numeric_readout("COc1cccc2c1[C@H]1CN(CCCCn3c(=O)[nH]c4c(sc5c(Cl)ccnc54)c3=O)C[C@@H]1CO2 [Example 5, dihydrochloride]")
0.086

* * *

Biological target: α-1A adrenoreceptor (rat submaxillary gland) (Rattus norvegicus)
Sequence (P43140 1-466): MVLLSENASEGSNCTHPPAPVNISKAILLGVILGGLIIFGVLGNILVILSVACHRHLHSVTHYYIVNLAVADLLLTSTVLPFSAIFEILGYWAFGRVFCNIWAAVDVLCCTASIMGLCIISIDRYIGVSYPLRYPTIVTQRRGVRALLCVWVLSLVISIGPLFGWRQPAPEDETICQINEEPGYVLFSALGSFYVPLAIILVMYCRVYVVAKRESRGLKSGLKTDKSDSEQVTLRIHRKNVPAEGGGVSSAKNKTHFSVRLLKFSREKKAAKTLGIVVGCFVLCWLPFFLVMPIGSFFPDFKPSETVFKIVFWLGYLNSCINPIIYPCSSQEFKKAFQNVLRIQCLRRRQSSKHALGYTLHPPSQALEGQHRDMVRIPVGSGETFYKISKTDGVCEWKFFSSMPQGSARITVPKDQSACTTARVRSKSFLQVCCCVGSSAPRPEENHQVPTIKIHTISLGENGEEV
Assay: biochemical
Format: binding
Conditions: [3H]-prazosin radioligand; rat submaxillary gland membranes; read-out: Radioligand Binding (Ki, nM) 1A (Rat)
Structures can show the parent of a compound that is named as a salt.
Below, each entry is listed alongside its reported Ki.
Parameter measured: Ki (nM)

>>> numeric_readout("COc1ccc2sc3c(=O)n(CCCCN4CC[C@H]5c6c(OC)cccc6OC[C@@H]5C4)c(=O)[nH]c3c2n1 [Example 98, hydrochloride]")
1.02
>>> numeric_readout("COc1cccc2c1[C@@H]1CN(CCCCn3c(=O)[nH]c4c(sc5cc(Cl)cnc54)c3=O)C[C@@H]1CO2 [Example 38, hydrochloride]")
0.376
>>> numeric_readout("COc1cccc2c1[C@@H]1CN(CCCCn3c(=O)[nH]c4c(sc5nccnc54)c3=O)C[C@@H]1CO2 [Example 15, dihydrochloride]")
0.227
>>> numeric_readout("COc1cccc2c1[C@@H]1CN(CCCCn3c(=O)[nH]c4c(sc5nc(C)ccc54)c3=O)C[C@H]1CO2 [Example 45, hydrochloride]")
0.125
>>> numeric_readout("COc1cccc2c1[C@H]1CN(CCCCn3c(=O)[nH]c4c(sc5cccnc54)c3=O)C[C@@H]1CO2 [Example 4, hydrochloride]")
0.097
>>> numeric_readout("COc1cccc2c1[C@@H]1CN(CCCCCn3c(=O)[nH]c4c(sc5ccccc54)c3=O)C[C@@H]1CO2 [Example 24, hydrochloride]")
5.37

* * *

Target: α-1A adrenoreceptor (rat submaxillary gland) (Rattus norvegicus, UniProt P43140)
Sequence (P43140 1-466): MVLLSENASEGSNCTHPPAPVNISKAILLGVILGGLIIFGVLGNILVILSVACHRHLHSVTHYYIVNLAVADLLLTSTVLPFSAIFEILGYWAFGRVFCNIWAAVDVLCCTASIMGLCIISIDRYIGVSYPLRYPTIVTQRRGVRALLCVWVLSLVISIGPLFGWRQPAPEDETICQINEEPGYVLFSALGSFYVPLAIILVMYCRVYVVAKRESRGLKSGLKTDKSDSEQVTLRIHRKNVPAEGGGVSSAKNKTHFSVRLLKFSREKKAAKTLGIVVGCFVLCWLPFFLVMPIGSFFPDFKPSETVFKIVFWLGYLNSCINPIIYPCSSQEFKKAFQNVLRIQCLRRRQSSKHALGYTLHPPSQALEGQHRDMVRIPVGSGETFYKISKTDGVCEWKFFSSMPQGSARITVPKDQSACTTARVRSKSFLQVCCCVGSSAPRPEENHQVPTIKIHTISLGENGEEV
Assay: biochemical
Type: binding
Conditions: [3H]-prazosin radioligand; rat submaxillary gland membranes; read-out: Radioligand Binding (Ki, nM) 1A (Rat)
Procedure: Additionally, binding affinity against the pharrnacologically defined α-1A adrenoreceptor (rat submaxillary gland) was measured. […] Receptor binding assays for α-1 adrenoreceptors were performed essentially as described by Greengrass and Bremner (Eur. J. Pharmacol. 55: 323-326 (1979)). […] Radioactivity was determined by standard liquid scintillation techniques. […]
Counter-ions that a name gives are not always drawn.
Parameter measured: log10 of Ki (log10 of the value in nM)

>>> numeric_readout("COc1cccc2c1[C@@H]1CN(CCCCn3c(=O)[nH]c4c(sc5ccncc54)c3=O)C[C@@H]1CO2 [Example 28, dihydrochloride]")
-0.56
>>> numeric_readout("COc1cnc2sc3c(=O)n(CCCCN4C[C@H]5COc6cccc(OC)c6[C@@H]5C4)c(=O)[nH]c3c2c1 [Example 55, hydrochloride]")
-0.95
>>> numeric_readout("COCCn1c(=O)n(CCCCN2C[C@@H]3COc4cccc(OC)c4[C@H]3C2)c(=O)c2sc3nccnc3c21 [Example 11, hydrochloride]")
-0.43
>>> numeric_readout("COc1cccc2c1[C@@H]1CCN(CCCCn3c(=O)[nH]c4c(sc5ccc(-c6ccccc6)nc54)c3=O)C[C@H]1CO2 [Example 101, dihydrochloride]")
0.10
>>> numeric_readout("COc1cnc2sc3c(=O)n(CCCCN4CC[C@H]5c6c(OC)cccc6OC[C@@H]5C4)c(=O)[nH]c3c2n1 [Example 99, hydrochloride]")
1.17
>>> numeric_readout("COc1cccc2c1[C@@H]1CN(CCCCn3c(=O)[nH]c4c(sc5cccnc54)c3=O)C[C@H]1CO2 [Example 3, hydrochloride]")
-1.59

* * *

Below, each entry is listed alongside its reported Ki.
Target: UniProt:P18130
Test: biochemical
Type: binding, bovine
Conditions: read-out: Radioligand Binding (Ki, nM) 1a (Bovine)
Source text: The cDNA clones encoding the α-1 adrenoreceptors (α-1a, α-1b, and α-1d) were obtained from TULCO (Triangle Universities Licensing Consortium, Research Triangle Park, NC) and inserted into the eukaryotic expression vector SnaB30. In this vector, expression of the adrenoreceptor gene is under the transcriptional control of an SV40 early promoter. […] Stable G418-resistant parental lines were generated, with successful expression of adrenoreceptor protein monitored using radioligand binding techniques. […]
Where a name gives a salt, the structure may show the parent alone.
Parameter measured: Ki (nM)

>>> numeric_readout("O=c1[nH]c2c(sc3cccnc32)c(=O)n1CCCCN1C[C@@H]2COc3ccccc3[C@H]2C1 (racemic) [Example 71, hydrochloride]")
0.068
>>> numeric_readout("COc1cc2[nH]c(=O)n(CCCCN3C[C@@H]4COc5ccccc5[C@H]4C3)c(=O)c2cc1OC (racemic) [Example 80, hydrochloride]")
0.17
>>> numeric_readout("COc1ccc2c(c1)[C@@H]1CN(CCn3c(=O)[nH]c4c(sc5ncccc54)c3=O)C[C@@H]1CO2 (racemic) [Example 78, hydrochloride]")
0.122

* * *

Below, each entry is listed alongside its reported Ki.
target: α-1b adrenoreceptor (Mesocricetus auratus); test: biochemical; assay type: binding, hamster; conditions: [3H]-prazosin radioligand; cloned receptor in LTK cell membranes; read-out: Radioligand Binding (Ki, nM) 1b (Hamster)
Sequence (P18841 whole entry): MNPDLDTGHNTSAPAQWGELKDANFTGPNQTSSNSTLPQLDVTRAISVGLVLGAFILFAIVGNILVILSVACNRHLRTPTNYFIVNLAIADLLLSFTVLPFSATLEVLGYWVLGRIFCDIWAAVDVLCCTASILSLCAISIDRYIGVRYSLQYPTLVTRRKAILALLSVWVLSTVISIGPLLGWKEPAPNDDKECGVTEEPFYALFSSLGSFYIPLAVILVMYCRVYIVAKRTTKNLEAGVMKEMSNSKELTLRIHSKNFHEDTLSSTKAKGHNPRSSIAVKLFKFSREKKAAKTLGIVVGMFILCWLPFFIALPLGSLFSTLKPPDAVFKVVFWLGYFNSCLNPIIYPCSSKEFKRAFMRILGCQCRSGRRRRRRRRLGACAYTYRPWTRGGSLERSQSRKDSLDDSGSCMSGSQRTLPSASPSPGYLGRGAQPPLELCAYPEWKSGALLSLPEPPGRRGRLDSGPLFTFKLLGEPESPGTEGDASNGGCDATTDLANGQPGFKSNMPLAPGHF
Structures can show the parent of a compound that is named as a salt.
Parameter measured: Ki (nM)

>>> numeric_readout("COc1ccc2c(n1)sc1c(=O)n(CCCCN3CC[C@H]4c5c(OC)cccc5OC[C@@H]4C3)c(=O)[nH]c12 [Example 103, hydrochloride]")
3.33
>>> numeric_readout("COc1ccc2sc3c(=O)n(CCCCN4CC[C@H]5c6c(OC)cccc6OC[C@@H]5C4)c(=O)[nH]c3c2n1 [Example 98, hydrochloride]")
2.65
>>> numeric_readout("COc1cccc2c1[C@@H]1CCN(CCCCn3c(=O)[nH]c4c(sc5ncc(-c6ccccc6)nc54)c3=O)C[C@H]1CO2 [Example 100, hydrochloride]")
27
>>> numeric_readout("COc1cccc2c1[C@@H]1CN(CCCCn3c(=O)[nH]c4c(sc5ncc(-c6ccoc6)nc54)c3=O)C[C@@H]1CO2 [Example 62, dihydrochloride]")
1150
>>> numeric_readout("COc1cccc2c1[C@@H]1CN(CCCCn3c(=O)[nH]c4c(sc5nc(-c6ccccc6)cnc54)c3=O)C[C@@H]1CO2 [Example 40, hydrochloride]")
33.8
>>> numeric_readout("COc1cccc2c1[C@@H]1CN(CCCCn3c(=O)[nH]c4c(sc5ncccc54)c3=O)C[C@@H]1CO2 [Example 34, hydrochloride]")
3.37
>>> numeric_readout("COc1cccc2c1[C@H]1CN(CCCCn3c(=O)[nH]c4c(sc5ccc(Cl)nc54)c3=O)C[C@@H]1CO2 [Example 6, dihydrochloride]")
2
>>> numeric_readout("COc1ccc2sc3c(=O)n(CCCCN4C[C@H]5COc6cccc(OC)c6[C@@H]5C4)c(=O)[nH]c3c2n1 [Example 26, hydrochloride]")
0.376
>>> numeric_readout("COc1cccc2c1[C@@H]1CN(CCCCn3c(=O)[nH]c4c(sc5ccnc(OC)c54)c3=O)C[C@H]1CO2 [Example 49]")
0.129
>>> numeric_readout("COc1cccc2c1[C@@H]1CN(CCCCn3c(=O)[nH]c4c(sc5nc(Cl)ccc54)c3=O)C[C@H]1CO2 [Example 47, hydrochloride]")
2.4
>>> numeric_readout("COc1cccc2c1[C@@H]1CN(CCCCn3c(=O)[nH]c4c(sc5nccnc54)c3=O)C[C@@H]1CO2 [Example 15, dihydrochloride]")
4.41
>>> numeric_readout("COc1cccc2c1[C@@H]1CN(CCCCn3c(=O)[nH]c4c(sc5ncc(-c6ccsc6)nc54)c3=O)C[C@H]1CO2 [Example 59, dihydrochloride]")
6.74
